Values were extracted from the supplement of paper PMC10724198.

Listing of recorded protein stability index by entry.
test system: Saccharomyces cerevisiae; assay: protein stability index of tFT-peptide fusion (C-terminal peptide) (PSI (0-1 scale)); higher = more stable (slower turnover); details: genetic background: wild type; temperature: 30 C
assay readout: protein stability index

PPPCRPSQFPPL : 0.742
LGQAVGAVGVEV : 0.64
FLLLSAGERCWD : 0.694
SWLGGIGGNEMV : 0.726
PPPTPRRPPCHT : 0.668
SFAPPLRCPPSS : 0.709
KGKKTTKTDAKK : 0.612
CPPCPSAPPPLP : 0.752
KRPVTPTFGRLQ : 0.645
SVALPLRQTPLH : 0.667
WCGKVVVGSRQG : 0.68
ATLSSVSSGSSF : 0.647
VLGIVEKRGILR : 0.773
LKDLGKQVVTVR : 0.587
GGGERFGLGGRM : 0.659
VLHLVGFDADVV : 0.725
DIQINENIYKNK : 0.687
EGGGGGGAPRVR : 0.752
CVPYLGEFTRNG : 0.691
QGAINSKRRPDQ : 0.603
IGARESGGWSLC : 0.686
KKKKTKKKTNSI : 0.727
NWLYPYSLRRRG : 0.663
YFLFRYIVITVF : 0.0865
ATYPVPMPPTPQ : 0.734
WLGAYVRAWSVA : 0.533
FPCAPFLLLDVS : 0.663
ASCHFSILPTRL : 0.67
PPACPYPFRPLP : 0.668
FVFPFHSRGVSQ : 0.647
RSVVLPSFLSPH : 0.699
DLLTRAYPWPAE : 0.692
SGEKKPTKGTRT : 0.57
QRKNQKKKHNRR : 0.716
RSPLPFPGASVP : 0.747
RRLDGDLSPPIR : 0.664
ICSDGIYTKGLC : 0.66
MNPRLTNKNNSS : 0.765
AKETSINKKALI : 0.69
FRWLLVAGGWGE : 0.486
PWGGLGTGWGRR : 0.75

* * *

test system: Saccharomyces cerevisiae; assay: protein stability index of tFT-peptide fusion (C-terminal peptide) (PSI (0-1 scale)); higher = more stable (slower turnover); details: genetic background: das1 deletion; temperature: 30 C
assay readout: protein stability index

ARLLRFWDHIIR [SHU1 C-terminal 12 aa] : 0.728
GVRKEFYELKRD [PRE7 C-terminal 12 aa] : 0.695
AKNARPSKKRKF [DBP10 C-terminal 12 aa] : 0.752
KAKFEGKKIKFD [BUD22 C-terminal 12 aa] : 0.678
RRDVQSRSSMAC [HFL1 C-terminal 12 aa] : 0.702
LDFAKRKLKKKQ [TFB2 C-terminal 12 aa] : 0.714
NESLSTILLYII [YKR033C C-terminal 12 aa] : 0.644
LKRTAIQFAAFS [SEC5 C-terminal 12 aa] : 0.685
HNLESLVVAFNE [SPO16 C-terminal 12 aa] : 0.687
SKNTREEKPTEL [MMM1 C-terminal 12 aa] : 0.698
TLVADQEDDVIF [VMA8 C-terminal 12 aa] : 0.704
EWAEENADNVEW [RPS0A C-terminal 12 aa] : 0.736
